TARGET_OR_SYSTEM: Nonstructural protein 1 (Influenza A virus, UniProt Q194T2)
Sequence (Q194T2 whole entry): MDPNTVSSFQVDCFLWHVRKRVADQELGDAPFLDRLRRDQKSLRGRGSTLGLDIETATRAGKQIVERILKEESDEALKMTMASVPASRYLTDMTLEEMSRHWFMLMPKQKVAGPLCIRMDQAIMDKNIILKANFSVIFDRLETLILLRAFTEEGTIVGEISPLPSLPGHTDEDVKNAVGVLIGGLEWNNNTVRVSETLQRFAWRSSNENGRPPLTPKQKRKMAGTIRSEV
Format: functional, Influenza A virus (A/California/07/2009(H1N1))
Active and inactive are the calls of the source.
Attribute: IC50

Cc1cccnc1NCc1ccc(O)c2ncccc12 14.1 µM (active)
CC(=O)N(Cc1ccc(F)cc1)C1=C(NCc2ccccc2)C(=O)c2ccccc2C1=O 35.3 µM (active)
O=C(NN=Cc1c(O)ccc2ccccc12)c1ccncc1 11.9 µM (active)

In: Give a short answer stating reported IC50 for `Cc1c2cc(O)c(=O)cc-2oc2cc(O)c(O)cc12` .
Out: 30.5 µM (active)

In: For the compound `Oc1ccc(C=NNc2ccccn2)c(O)c1` , give its measured IC50 value.
Out: 2.71 µM (active)

In: Specify reported IC50 for the compound shown: `CC1=NN(c2ccccc2)C(=O)/C1=C/c1ccc[nH]1`
Out: 33 µM (active)
